assay: Terminal plasma pharmacokinetic analysis in tumor-bearing mice; format: in vivo, mouse; details: nude, mouse, plasma; OVCAR-3 study, 100 mg/kg IP, after the final dose

{"compound": "CC(C)(C)NS(=O)(=O)c1cccc(NC(=O)c2ccc(S(=O)(=O)NC(C)(C)C)cc2N2CCC3(CC2)CC3)c1 [Compound C9]", "AUC (µM·h)": 130}

====

experiment: Terminal plasma pharmacokinetic analysis in tumor-bearing mice; type: in vivo, mouse; conditions: nude, mouse, plasma; OVCAR-3 study, 25 mg/kg IP, after the final dose

{"compound": "C[C@@H]1CN(c2cccc(NC(=O)c3ccc(NS(=O)(=O)CCO)cc3N3CCC4(CC3)CC4)n2)CCO1 [Compound C12]", "AUC, µM·h": 53}

====

test system: panel of cell lines (HCC-1806, HCC-1937, BT-549, MDA-MB-157, MCF-7, CAL-51, MDA-MB-453, ZR-75-1, OVCAR-3, OVCAR-5); experiment: 96 h cell growth assay (Example 19); format: cell-based; settings: Homo sapiens, KIF18A inhibitor-sensitive cells (e.g., OVCAR-3 and BT-549), read-out: Mean Count EC50
Form field: EC50 (one value per entry).

{"structure smiles string": "CC(C)(CO)Nc1ccc(C(=O)Nc2cccc(S(=O)(=O)C3CCCC3)c2)c(N2CCC3(CC2)CC3)n1", "EC50 (nM)": 47}
{"structure smiles string": "CC(C)(C)NS(=O)(=O)c1cccc(NC(=O)c2ccc(S(=O)(=O)NC(C)(C)C)cc2N2CCC3(CC2)CC3)c1", "EC50 (nM)": 21}

====

molecular target: Recombinant human KIF18A (1-467 His-tagged) protein (Homo sapiens); construct: Recombinant human KIF18A (1-467 His-tagged) protein; His; made in house; test: KIF18A Enzyme Assay (microtubule-stimulated ATPase activity, ADP-Glo); assay type: biochemical; details: 30 nM KIF18A, 75 μM ATP
Sequence (Q8NI77 1-467): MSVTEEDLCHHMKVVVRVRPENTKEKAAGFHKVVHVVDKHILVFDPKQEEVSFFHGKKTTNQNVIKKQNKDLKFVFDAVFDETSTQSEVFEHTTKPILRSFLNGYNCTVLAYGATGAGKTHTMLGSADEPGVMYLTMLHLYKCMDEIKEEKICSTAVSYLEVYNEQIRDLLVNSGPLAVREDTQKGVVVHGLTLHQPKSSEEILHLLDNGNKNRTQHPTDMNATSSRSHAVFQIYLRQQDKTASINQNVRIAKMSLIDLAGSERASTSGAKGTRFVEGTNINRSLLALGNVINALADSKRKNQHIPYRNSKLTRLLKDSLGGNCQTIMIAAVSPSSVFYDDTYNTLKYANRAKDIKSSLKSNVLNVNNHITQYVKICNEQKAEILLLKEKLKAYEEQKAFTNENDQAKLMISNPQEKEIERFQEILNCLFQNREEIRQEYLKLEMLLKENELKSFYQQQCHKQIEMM
Sequence (P02550 whole entry partner): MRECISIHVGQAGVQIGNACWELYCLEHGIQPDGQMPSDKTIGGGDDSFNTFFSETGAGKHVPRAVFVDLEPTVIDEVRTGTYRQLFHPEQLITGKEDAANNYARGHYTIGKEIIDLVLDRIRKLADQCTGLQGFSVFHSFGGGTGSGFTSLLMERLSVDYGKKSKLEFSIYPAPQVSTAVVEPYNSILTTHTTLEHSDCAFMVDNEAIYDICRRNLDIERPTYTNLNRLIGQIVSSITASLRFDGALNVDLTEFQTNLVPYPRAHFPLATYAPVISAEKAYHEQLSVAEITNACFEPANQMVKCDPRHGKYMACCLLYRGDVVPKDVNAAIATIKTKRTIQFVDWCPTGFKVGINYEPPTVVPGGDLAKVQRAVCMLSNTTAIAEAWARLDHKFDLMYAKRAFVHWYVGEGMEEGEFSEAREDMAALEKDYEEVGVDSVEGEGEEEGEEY
Sequence (P02554 whole entry partner): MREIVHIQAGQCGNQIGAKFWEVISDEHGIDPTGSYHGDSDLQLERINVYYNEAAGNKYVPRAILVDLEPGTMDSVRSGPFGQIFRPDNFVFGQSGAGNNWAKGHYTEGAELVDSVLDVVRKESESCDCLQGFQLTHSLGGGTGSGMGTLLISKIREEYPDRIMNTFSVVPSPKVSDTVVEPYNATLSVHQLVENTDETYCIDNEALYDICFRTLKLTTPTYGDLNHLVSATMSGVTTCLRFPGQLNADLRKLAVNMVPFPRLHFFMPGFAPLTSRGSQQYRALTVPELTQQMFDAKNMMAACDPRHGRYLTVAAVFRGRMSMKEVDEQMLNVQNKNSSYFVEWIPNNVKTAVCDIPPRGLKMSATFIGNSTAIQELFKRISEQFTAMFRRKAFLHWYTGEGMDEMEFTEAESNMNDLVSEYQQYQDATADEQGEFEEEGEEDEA
The label yes is reserved for IC50 strictly under 60 nM; no covers values equal to or above it.

{"molecule": "CC(C)(CO)Nc1ccc(C(=O)Nc2cccc(S(=O)(=O)C3CCCC3)c2)c(N2CCC3(CC2)CC3)n1 [Compound C11]", "answer label": "yes"}
{"molecule": "Cc1cc(NC(=O)c2ccc(S(=N)(=O)C3CC3)cc2N2CCC3(CC2)CC3)nc(N2CCC(F)(F)CC2)n1 (single isomer, unassigned) [Compound C2]", "answer label": "yes"}
{"molecule": "Cc1cc(NC(=O)c2ccc([S@](=N)(=O)C3CC3)cc2N2CCC3(CC2)CC3)nc(N2CCC(F)(F)CC2)n1 (single isomer, unassigned) [Compound C1]", "answer label": "no"}
{"molecule": "Cc1cc(NC(=O)c2ccc(NS(=O)(=O)[C@@H](C)CO)cc2N2CCC3(CC2)CC3)nc(N2CCC(F)(F)CC2)n1 (single isomer, unassigned) [Compound C6]", "answer label": "no"}
{"molecule": "CC(C)(C)NS(=O)(=O)c1cccc(NC(=O)c2ccc(NC(C)(C)CO)nc2N2CCC3(CC2)CC3)c1 [Compound C10]", "answer label": "no"}
{"molecule": "Cc1cc(NC(=O)c2ccc(NS(=O)(=O)[C@H](C)CO)cc2N2CCC3(CC2)CC3)nc(N2CCC(F)(F)CC2)n1 (single isomer, unassigned) [Compound C5]", "answer label": "no"}
